All values here come from BindingDB's records for doi:10.1021/jm301749y.

Molecular target: C-C chemokine receptor type 4 (Homo sapiens)
Sequence (P51679 whole entry): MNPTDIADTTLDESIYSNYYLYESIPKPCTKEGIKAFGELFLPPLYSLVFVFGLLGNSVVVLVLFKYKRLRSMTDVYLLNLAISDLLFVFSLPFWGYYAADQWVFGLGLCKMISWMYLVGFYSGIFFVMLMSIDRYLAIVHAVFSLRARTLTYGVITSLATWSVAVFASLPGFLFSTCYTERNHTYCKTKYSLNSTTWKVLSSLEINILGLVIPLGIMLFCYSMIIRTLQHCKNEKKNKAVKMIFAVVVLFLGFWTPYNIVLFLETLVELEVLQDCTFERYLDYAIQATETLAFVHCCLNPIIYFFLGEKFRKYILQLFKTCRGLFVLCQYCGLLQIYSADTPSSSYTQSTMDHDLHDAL
Assay: Inverse agonist activity at CCR4 in human HTLA cells assessed as depression of basal activity incubated for 20 mins by beta arrestin-recruitment mediated luciferase reporter gene assay in absence of CCL22
recordedEndpoint: pIC50
# pIC50 = -log10(concentration in molar units)

# input Could you share which pIC50 value was measured for CCC(C)n1ncn(-c2ccc(N3CCN(c4ccc(OC[C@H]5CO[C@](Cn6cncn6)(c6ccc(Cl)cc6Cl)O5)cc4)CC3)cc2)c1=O (stereo partly specified) ?
# output 6.70
